Entries and their relative viability values follow.
Test system: NCI-H596
Experiment: relative viability (nuclei count vs DMSO), 5 days (fraction); higher = more cells survive
Settings: first compound 2.53 µM

compound	assaySystem	relative viability
COc1nc(C)cnc1NS(=O)(=O)c1cccnc1-c1ccc(-c2nnco2)cc1 [Zibotentan] + Nc1nc2[nH]cc(CCc3ccc(C(=O)N[C@@H](CCC(=O)O)C(=O)O)cc3)c2c(=O)[nH]1 [Pemetrexed] (partner 0.2 µM)	NCI-H596	0.501
O=c1cc(-c2cccc3c2Sc2ccccc2S3)oc(N2CCOCC2)c1 + COc1cccc2cc(-c3nc([C@H]4CC[C@H](C(=O)O)CC4)n4ncnc(N)c34)[nH]c12 [OSI-027] (partner 0.5 µM)	NCI-H596	0.683
O=c1cc(-c2cccc3c2Sc2ccccc2S3)oc(N2CCOCC2)c1 + Cc1cc(Nc2cc(N3CCN(C)CC3)nc(Sc3ccc(NC(=O)C4CC4)cc3)n2)n[nH]1 [Tozasertib] (partner 0.1 µM)	NCI-H596	0.762
COc1nc(C)cnc1NS(=O)(=O)c1cccnc1-c1ccc(-c2nnco2)cc1 [Zibotentan] + CS(=O)(=O)CCNCc1ccc(-c2ccc3ncnc(Nc4ccc(OCc5cccc(F)c5)c(Cl)c4)c3c2)o1 [Lapatinib] (partner 2 µM)	NCI-H596	1.08
